- measured-target: T1, Cdc25, P04821
- T1 sequence (P04821 50-136, looked up): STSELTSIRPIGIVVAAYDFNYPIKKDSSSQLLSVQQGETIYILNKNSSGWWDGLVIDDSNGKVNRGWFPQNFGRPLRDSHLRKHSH
- test: SPOT array
- test-context: median of control spots 969
property: SPOT intensity

(P) GTIARPLFLVVLFFI
(Q) RSLRKRPTSPSISGS
(R) SLSRRRFSLPSMPNV
(S) VNFRRIPTGPDSPPT
Sort the items above by SPOT intensity, starting with the smallest value. Order the labels as requested and list them. S, P, R, Q
(S: 0, P: 18, R: 35, Q: 52)

Where do the numbers come from? From paper PMC2756588.
